Field: %Inh. Provide a value for each of the compounds that follow.
# Tested on: DYRK1B
# condition_set: concentration: 1 μM, replicates: in singlicate; n = 1
Answers are plain numbers, in %.

compound: COc1ccc(CSc2nnc(-c3ccc4nccn4c3)o2)cc1C(F)(F)F
value_kind: %Inh
value_observed: 41

Here are 5 compounds. What values of %Inh were reported for them?
1. COC(=O)c1cccc(NC(=O)NC2CCN(c3ccnc(Nc4ccc(F)cc4)n3)C2)c1 (stereo not shown)
2. CS(=O)(=O)CCNCc1nc(-c2ccc3ncnc(Nc4ccc(OCc5ccccc5)c(Cl)c4)c3c2)cs1.Cl
3. CC[C@@H]1CO[C@H](C(=O)Nc2ccccc2)CN1c1cc(-c2ccc3c(N)n[nH]c3c2)nc(NC)n1
4. O=c1cc(N2CCOCC2)nc2n(Cc3ccccc3F)ccn12
5. Fc1ccc(-c2nc[nH]c2-c2ccncc2)cc1

Output line:
1: 0; 2: 0; 3: 0; 4: 0; 5: 0

Here are 4 compounds. What values of %Inh were reported for them?
1. CNc1cc(-c2ccc3c(N)n[nH]c3c2)nc(N)n1
2. COc1cc2ncnc(Nc3cccc(Br)c3)c2cc1OC.Cl
3. CC(=O)c1c(C)c2cnc(Nc3ccn(C)n3)nc2n(C2CCCC2)c1=O
4. Cc1ccccc1-c1cc(-c2c[nH]nc2-c2ccccn2)ccn1

Output line:
43
0
0
0

Here are 4 compounds. What values of %Inh were reported for them?
1. O=C1NC(=O)C(c2ccc(Cl)cc2)=C1Nc1cccc(Cl)c1
2. O=C(Nc1n[nH]c2cc(-c3ccsc3)ccc12)C1CC1
3. COC(=O)C(Cc1ccccc1)NC(=O)NC1CCN(c2ccnc(Nc3ccc(F)cc3)n2)C1 (stereo not shown)
4. Cl.Cl.Cl.N#Cc1ccc(CCNc2nccc(-c3cccc(CN4CCNCC4)c3)n2)cc1

Output line:
1. 52
2. 12
3. 10
4. 0

Here are 4 compounds. What values of %Inh were reported for them?
1. CS(=O)(=O)CCNCc1nc(-c2ccc3ncnc(Nc4ccc5c(cnn5Cc5ccccc5)c4)c3c2)cs1.Cl.Cl
2. COc1ccc(Nc2nccc(N3CCC(NC(=O)C(C)c4ccc(Cl)cc4)CC3)n2)cc1 (stereo not shown)
3. COc1nccc(-c2c(-c3ccc(F)cc3)ncn2CCCN2CCOCC2)n1
4. Cc1ccc(NC(=O)Nc2ccc(Cl)c(C(F)(F)F)c2)cc1-c1ccc(C(=O)Nc2ccncc2)cc1

Output line:
0
0
61
19

Here are 4 compounds. What values of %Inh were reported for them?
1. Fc1ccc(-c2nc3n(c2-c2ccncc2)CCS3)cc1
2. CNCc1ccc2nc(NC(=O)c3ccc(C(C)(C)C)cc3)cn2c1
3. CC(=O)c1cccc(NC(=O)NC2CCN(c3ccnc(Nc4ccc(F)cc4)n3)C2)c1 (stereo not shown)
4. COc1ccc(CSc2nnc(-c3ccc4ncsc4c3)o2)cc1C(F)(F)F

Output line:
13
0
27
28

* * *

# Tested on: MINK
# Construct: gene MINK1
# condition_set: concentration: 1 μM, replicates: in singlicate; n = 1
value_kind: %Inh
The number alone won't do; follow it with the unit.

Answered examples (5):
smiles_code: Cc1ccc(NC(=O)Nc2ccccc2F)cc1-c1ccc(C(=O)Nc2ccncc2)cc1
%Inh: 0%
//
smiles_code: CS(=O)(=O)CCNCc1nc(-c2ccc3ncnc(Nc4ccc(OCc5ccccc5)c(Cl)c4)c3c2)cs1.Cl
%Inh: 0%
//
smiles_code: COc1cccc(NC(=O)Nc2ccc(C)c(-c3ccc(C(=O)Nc4ccncc4)cc3)c2)c1
%Inh: 6%
//
smiles_code: Fc1ccc(-c2nc3n(c2-c2ccncc2)CCS3)cc1
%Inh: 45%
//
smiles_code: CNCc1ccc2nc(NC(=O)c3ccc(C(C)(C)C)cc3)cn2c1
%Inh: 53%

Here are 3 compounds. What values of %Inh were reported for them?
1. Cc1nccc(-c2c(-c3ccc(F)cc3)ncn2CCCN2CCOCC2)n1.Cl
2. COc1cc2ncnc(Nc3cccc(Br)c3)c2cc1OC.Cl
3. Fc1ccc(-c2nc[nH]c2-c2ccncc2)cc1

Output line:
1: 18%; 2: 40%; 3: 58%

Here are 2 compounds. What values of %Inh were reported for them?
1. COc1nccc(-c2c(-c3ccc(F)cc3)ncn2CCCN2CCOCC2)n1
2. CC(=O)c1c(C)c2cnc(Nc3ccc(N4CCNCC4)cn3)nc2n(C2CCCC2)c1=O

Output line:
1: 0%; 2: 0%

Here are 8 compounds. What values of %Inh were reported for them?
1. Cc1ccc(NC(=O)Nc2ccc(Cl)cc2)cc1-c1ccc(C(=O)Nc2ccncc2)cc1
2. COc1ccc(Nc2nccc(-c3ccc(NC(=O)c4cc5cc(F)ccc5[nH]4)cc3)n2)cc1
3. Cc1cnc(N)c(/C=C/c2cncc(C(=O)NCCc3ccc(Cl)cc3Cl)c2)c1.Cl
4. CS(=O)(=O)Cc1ccc(Nc2nccc(-c3c(-c4cccc(NC(=O)C5CCCCC5)c4)nn4ncccc34)n2)cc1
5. COc1ccc(-c2coc3ccc(-c4nnc(C)o4)cc23)cc1
6. Cn1cnc2c(N)ncnc21
7. Cc1cccc2c(-c3ccncn3)c(-c3ccc(F)cc3)nn12
8. Nc1ncnc2occ(-c3ccc4c(c3)CCN4C(=O)Cc3cc(F)ccc3F)c12

Output line:
["11%", "4%", "4%", "0%", "0%", "0%", "0%", "0%"]

* * *

The following compounds each carry a recorded log10 Kd for PDGFRB.
Scale: log10; quantity: Kd; unit before log: nM

Answered examples (3):
smiles_code: Cc1ccc(NC(=O)c2ccc(Cl)cc2)cc1-c1ccc(C(=O)Nc2ccncc2)cc1
log10 Kd: 0.99

smiles_code: Cc1ccc(NC(=O)Nc2ccccc2)cc1-c1ccc(C(=O)Nc2ccncc2)cc1
log10 Kd: 1.45

smiles_code: O=C(Nc1n[nH]c2cc(-c3ccsc3)ccc12)C1CC1
log10 Kd: 2.85

Here are 3 compounds. What values of log10 Kd were reported for them?
1. CS(=O)(=O)Cc1ccc(Nc2nccc(-c3c(-c4cccc(NC(=O)C5CCCCC5)c4)nn4ncccc34)n2)cc1
2. Cc1ccc(NC(=O)Nc2ccc(Cl)c(C(F)(F)F)c2)cc1-c1ccc(C(=O)Nc2ccncc2)cc1
3. Cc1ccc(NC(=O)Nc2ccc(Cl)cc2)cc1-c1ccc(C(=O)Nc2ccncc2)cc1

Output line:
1.87
2.43
1.93

Entry under test: "COc1cccc(NC(=O)Nc2ccc(C)c(-c3ccc(C(=O)Nc4ccncc4)cc3)c2)c1" . Its log10 Kd was 1.60

* * *

Field: %Inh. Provide a value for each of the compounds that follow.
# Test system: TTK
# condition_set: concentration: 1 μM, replicates: in singlicate; n = 1
Give bare numbers, in %.

Here are 8 compounds. What values of %Inh were reported for them?
1. CNc1nc(-c2ccc3c(N)n[nH]c3c2)cc(N2C[C@@H](C(=O)NC3CCCCC3)OC[C@H]2C)n1 [GSK2375584]
2. COc1ccc(Nc2nccc(N3CCC(NC(=O)C(C)c4ccc(Cl)cc4)C3)n2)cc1 (stereo not drawn) [GSK1379735]
3. COc1cccc(NC(=O)Nc2ccc(C)c(-c3ccc(C(=O)Nc4ccncc4)cc3)c2)c1 [GSK1398474]
4. O=c1cc(N2CCOCC2)nc2n(Cc3ccccc3F)ccn12 [GSK2297428]
5. Nc1ncnc2occ(-c3ccc4c(c3)CCN4C(=O)Cc3cc(F)ccc3F)c12 [GSK2645446]
6. Nc1cccc(-c2ccc3c(N)n[nH]c3c2)n1 [GSK2192730]
7. Cc1cnc(N)c(/C=C/c2cncc(C(=O)NCCc3ccc(Cl)cc3Cl)c2)c1.Cl [GSK190937]
8. CC(=O)c1c(C)c2cnc(Nc3ccn(C)n3)nc2n(C2CCCC2)c1=O

Output line:
1: 7; 2: 29; 3: 13; 4: 0; 5: 0; 6: 6; 7: 0; 8: 52

* * *

# Tested on: LIMK2
# condition_set: concentration: 1 μM, replicates: in singlicate; n = 1
Field: %Inh. Provide a value for each of the compounds that follow.
Answers are plain numbers, in %.

Answered examples (4):
compound: NS(=O)(=O)c1cccc(N/C=C2\C(=O)Nc3ccc(S(=O)(=O)Cc4c(Cl)cccc4Cl)cc32)c1
value_kind: %Inh
value_observed: 28
--
compound: Cc1ccccc1-c1cc(-c2c[nH]nc2-c2ccccn2)ccn1
value_kind: %Inh
value_observed: 0
--
compound: O=C1NC(=O)C(c2ccc(Cl)cc2)=C1Nc1ccc(O)cc1
value_kind: %Inh
value_observed: 0
--
compound: COc1nccc(-c2c(-c3ccc(F)cc3)ncn2CCCN2CCOCC2)n1
value_kind: %Inh
value_observed: 0

Here are 2 compounds. What values of %Inh were reported for them?
1. c1ccc(-c2ccnc3[nH]ccc23)cc1
2. COc1ccc(Nc2nccc(N3CCC(NC(=O)C(C)c4ccc(Cl)cc4)C3)n2)cc1 (stereo not drawn)

Output line:
0
0

* * *

# System: CSNK1D
# condition_set: concentration: 1 μM, replicates: in singlicate; n = 1
value_kind: %Inh (%)
One number for each entry, in %.

compound: Nc1ncnc2occ(-c3ccc4c(c3)CCN4C(=O)Cc3cc(F)ccc3F)c12
%Inh [%]: 0

Here are 3 compounds. What values of %Inh were reported for them?
1. FC(F)(F)c1ccccc1-c1cc(-c2c[nH]nc2-c2ccccn2)ccn1
2. O=c1cc(N2CCOCC2)nc2n(Cc3ccccc3F)ccn12
3. NS(=O)(=O)c1cccc(N/C=C2\C(=O)Nc3ccc(S(=O)(=O)Cc4c(Cl)cccc4Cl)cc32)c1

Output line:
1. 36
2. 25
3. 12

Here are 5 compounds. What values of %Inh were reported for them?
1. COc1ccc(-c2coc3ccc(-c4nnc(C)o4)cc23)cc1
2. Cc1ccc(-c2nc(Nc3ccncc3)c3ccccc3n2)s1
3. Cc1ccc(NC(=O)Nc2ccc(Cl)c(C(F)(F)F)c2)cc1-c1ccc(C(=O)Nc2ccncc2)cc1
4. Cn1cnc2c(N)ncnc21
5. CNc1cc(-c2ccc3c(N)n[nH]c3c2)nc(N)n1

Output line:
1. 0
2. 33
3. 7
4. 0
5. 9

Here are 4 compounds. What values of %Inh were reported for them?
1. O=c1cc(N2CCOCC2)nc2n(Cc3cccc(Cl)c3Cl)c3ccccc3n12
2. COc1ccc(Nc2nccc(N3CCC(NC(=O)c4cc5ccccc5s4)C3)n2)cc1 (stereo not drawn)
3. COc1ccc(CSc2nnc(-c3ccc4ncsc4c3)o2)cc1C(F)(F)F
4. Cc1nccc(-c2c(-c3ccc(F)cc3)ncn2CCCN2CCOCC2)n1.Cl

Output line:
[19, 9, 0, 95.6]

Here are 5 compounds. What values of %Inh were reported for them?
1. COC(=O)c1cccc(NC(=O)NC2CCN(c3ccnc(Nc4ccc(OC)cc4)n3)C2)c1 (stereo not drawn)
2. COC(=O)c1cccc(NC(=O)NC2CCN(c3ccnc(Nc4ccc(F)cc4)n3)C2)c1 (stereo not drawn)
3. O=C(Nc1n[nH]c2cc(-c3ccsc3)ccc12)C1CC1
4. CCn1c(-c2c(N)noc2C)nc2cnccc21
5. Nc1nccc(-c2c(-c3ccc(F)cc3)ncn2C2CCN(Cc3ccccc3)CC2)n1

Output line:
1: 21; 2: 21; 3: 0; 4: 13; 5: 94.1
